Values compiled from paper PMC9804387.

# measurementTarget: cathepsin D (Homo sapiens, UniProt P07339)
# Construct: purchased Athens Research 16-12-030104
# Sequence (P07339 65-412): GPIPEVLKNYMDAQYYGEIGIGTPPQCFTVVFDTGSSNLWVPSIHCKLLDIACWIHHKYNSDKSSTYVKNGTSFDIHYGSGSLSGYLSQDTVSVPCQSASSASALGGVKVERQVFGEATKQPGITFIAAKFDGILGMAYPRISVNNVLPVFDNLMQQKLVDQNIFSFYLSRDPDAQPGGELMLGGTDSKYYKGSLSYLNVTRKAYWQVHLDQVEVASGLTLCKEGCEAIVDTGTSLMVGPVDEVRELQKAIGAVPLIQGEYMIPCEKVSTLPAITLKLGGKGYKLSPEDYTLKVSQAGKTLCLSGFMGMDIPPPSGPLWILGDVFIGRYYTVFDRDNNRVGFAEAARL
# methodSummary: Cathepsin D FRET protease assay
# Assay type: biochemical
# runParameters: mean and SD of 4 replicate FRET experiments, 37 °C; highest concentration tested 11 μM
pIC50: −log10 of the molar value. Counter-ions that a name gives are not always drawn.
readoutName: pIC50

Below are worked cases with known answers.
1) CC(C)[C@H](NC(=O)OCc1ccccc1)C(=O)N[C@@H](Cc1ccccc1)[C@H](O)CN[C@H](C)c1ccccc1 [Compd 34, Cbz‐Val‐Phe‐HEA‐Bn(CH3)] :: < 4.96
2) C[C@@H](NC[C@@H](O)[C@H](Cc1ccccc1)NC(=O)[C@H](CO)NC(=O)OCc1ccccc1)c1ccccc1 [Compd 38, Cbz‐Ser‐Phe‐HEA‐Bn(CH3)⋅TFA] :: < 4.96
3) C[C@@H](NC[C@@H](O)[C@H](Cc1ccccc1)NC(=O)c1ccc(C(=O)N2CCN(C)CC2)cc1)c1ccccc1 [Compd 2, reference compound] :: < 4.96
4) CCC(C)[C@H](NC(=O)OCc1ccccc1)C(=O)N[C@@H](Cc1ccccc1)[C@H](O)CN[C@H](C)c1ccccc1 (some centres unmarked) [Compd 37, Cbz‐Ile‐Phe‐HEA‐Bn(CH3)] :: 6.70

API: the following record is the query input.
Prompt: Dear colleague, I am looking for the recorded pIC50 of the following compound: CCC(C)C(NC(C)=O)C(=O)NC(CO)C(=O)NC(Cc1ccccc1)C(O)CNC(C)c1ccccc1 (centres unmarked) [Compd 26, Ac‐Ile‐Ser‐Phe‐HEA‐Bn(CH3)⋅TFA]
Response: < 4.96
